Data credit: ChEMBL document CHEMBL1157539

# Tested on: Plasmodium falciparum
# assay_text: GSK_TCMDC: Inhibition of Plasmodium falciparum Dd2 in whole red blood cells, using parasite LDH activity as an index of growth. Test compounds present at 2uM
# Format: functional
Please use yes for Inhibition under 90% and no for everything else, ties included.

molecule: COc1ccc(NC(C)C(=O)Nc2ccc(Br)cc2)cc1S(=O)(=O)N1CCCCC1 (configuration not stated)
class: no

molecule: CCC(C)OC(=O)C1=C(C)NC2=C(C(=O)CC(c3ccc(OC)c(OC)c3)C2)C1c1ccc(C)o1 (configuration not stated)
class: yes

molecule: O=C(O)C(F)(F)F.c1ccc2c(c1)CN(Cc1cc3ccccc3[nH]1)CC1(CCN(Cc3c[nH]c4cnccc34)CC1)O2
class: yes

molecule: O=C(Nc1ccc(Cl)cc1Cl)N[C@H]1CCN(CCCCCNC(=O)C2CC2c2ccc(Cl)c(Cl)c2)C1 (some centres not stated)
class: yes

molecule: O=C(N[C@@H](CC1CCCCC1)C(=O)NCc1cccc(C(F)(F)F)c1)c1ccc(O)c(-c2ccc(Cl)c(Cl)c2)c1
class: no

molecule: O=C(Cc1ccccc1)NC1CCN(c2ccnc3cc(Cl)ccc23)C1.O=C(O)C(F)(F)F (configuration not stated)
class: yes

molecule: Cc1nc(C)c(-c2ccc(Oc3ccc(OC(F)(F)F)cc3)cc2)c(O)c1I
class: no

molecule: FC(F)(F)c1ccc2[nH]c(-c3ccc(-c4cccc(CNCCN5CCNCC5)c4)s3)nc2c1.O=C(O)C(F)(F)F
class: yes

molecule: CC(C)c1ccc2[nH]c(C(=O)NC3CCC(N4CCCc5ccc(C#N)cc5C4)CC3)cc2c1 (configuration not stated)
class: yes

molecule: Cc1cc(NCCc2ccccc2)nc(NC(=N)Nc2cccc(Cl)c2)n1
class: no

molecule: N#Cc1ccc(C(=O)Nc2ccc(Cl)c(N3CCN(CCc4ccccc4)CC3)c2)cc1.O=C(O)C(F)(F)F
class: yes

molecule: CN1CCN(S(=O)(=O)c2cccc(Nc3nccc(N(C)c4ccc5c(c4)nc(NC(=O)c4cccs4)n5C)n3)c2)CC1
class: yes

molecule: CC(C)CNCc1ccc(-c2ccccc2CN(C(=O)NCCc2ccccc2)C2CCN(Cc3ccccc3)CC2)cc1.O=C(O)C(F)(F)F
class: no

molecule: CC(C)n1ncc2c(C(=O)N3CCCCCC3)cc(-c3ccccc3)nc21
class: yes

molecule: Cc1cccc2nc(-c3ccc(-c4ccc(CN5CCCCC5)cc4)cc3)[nH]c12.O=C(O)C(F)(F)F
class: no

----------
Entries annotated with measured Inhibition
# Test system: Plasmodium falciparum
# assay_text: GSK_TCMDC: Inhibition of Plasmodium falciparum Dd2 in whole red blood cells, using parasite LDH activity as an index of growth. Test compounds present at 2uM
# Format: functional
observed_property: Inhibition (%)

molecule: Cl.O=C(NC1CCC(CCN2Cc3cccc(F)c3C2)CC1)c1cccc(-c2cccnc2)c1 (centres undefined)
value: 82

molecule: O=C(Nc1ccc(-c2nc3ccccc3[nH]2)cc1)c1ccc(S(=O)(=O)N2CCc3ccccc32)cc1
value: 34

molecule: CC(C)(C)c1ccc(CN2CCCCC(NC(=O)c3cc(-c4ccccc4Cl)cs3)C2)cc1.O=C(O)C(F)(F)F (centres undefined)
value: 98

molecule: CCn1c(SCc2ccc(F)cc2)nc2sc3c(c2c1=O)CCN(C)C3
value: 81

molecule: COc1cc(OC)c(NC(=O)C2c3ccccc3C(=O)N(C)C2c2cccs2)cc1Cl (centres undefined)
value: 52

molecule: CC(=O)Nc1ccc(OCCN(Cc2ccccc2OC(F)(F)F)c2ccc(C(F)(F)F)c(C#N)c2)c(Cl)c1
value: 96

molecule: COc1ccc(CNC2CCN(C)CC2)cc1-c1ccc(S(=O)(=O)NCCN2CCCC2)s1.O=C(O)C(F)(F)F
value: 1

molecule: CCCCCCn1c(Sc2ccc(C#N)c([N+](=O)[O-])c2)nnc1-c1cccc(Cl)c1
value: 90

molecule: CS(=O)(=O)O.O=[N+]([O-])c1ccc(CNCCCCCCNCc2ccc([N+](=O)[O-])c3ccccc23)c2ccccc12
value: 98
